Test system: wheat germ agglutinin (Triticum aestivum), Alexa647-labelled
Method: wheat germ agglutinin binders on compound microarrays, profiling panel, artefact control for SMM control-protein annotation, biochemical, small-molecule microarray, 635/667 nm fluorescence (AID 1140);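 further: score merges 667 nm feature emission with signal to noise over triplicate slides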
Conditions: WGA-A647 binding, 635 nm fluorescence, higher = more signal
As shown below, each of these molecules has a reported composite z-score value.

Molecule: CO[C@H]1O[C@H](CO)[C@@H](OC(=O)Nc2ccccc2)[C@H](OC(=O)Nc2ccccc2)[C@@H]1OC(=O)Nc1ccccc1
composite z-score: 0.833
--
Molecule: COC(=O)[C@@]1(Cc2ccc(F)cc2)[C@H]2c3cc(C(=O)N4CCCC4)n(CCCNc4ncc(C(F)(F)F)cc4Cl)c3C[C@H]2CN1C(=O)c1ccccc1
composite z-score: 1.03
--
Molecule: COc1ccc(C#Cc2ccc3c(c2)[C@]2(C(=O)N3)[C@H](c3ccccc3OCCO)N3[C@H](c4ccccc4)[C@H](c4ccccc4)OC(=O)[C@H]3[C@@H]2C(=O)Nc2nc3ccccc3s2)cc1
composite z-score: 0.828
--
Molecule: C=CC[C@]1(C(=O)NCc2ccccc2)N=C(c2ccc(OCCCO)cc2)O[C@H]1c1ccccc1N=[N+]=[N-]
composite z-score: 1.23
--
Molecule: COC(=O)[C@H](Cc1ccccc1)N[C@@H](/C=C/C1CC1)[C@H](O)Cc1ccccc1
composite z-score: 0.319
--
Molecule: COCCOC(=O)N1C(=O)[C@@]2(c3cc(C#CC4(O)CCCCCC4)ccc31)[C@H](c1ccc(OCCO)cc1)N1[C@H](c3ccccc3)[C@H](c3ccccc3)OC(=O)[C@H]1[C@@H]2C(=O)N1CCN(c2ncccn2)CC1
composite z-score: 0.458
--
Molecule: CCc1cccc(NC(=O)O[C@H]2[C@H](OC(=O)Nc3ccccc3-c3ccccc3)[C@@H](OC(=O)Nc3ccccc3-c3ccccc3)[C@@H](OC)O[C@@H]2CO)c1
composite z-score: 1.08
--
Molecule: C[N+](C)(C)CCCCNC(=O)[C@@H]1C[C@@H]2C(=O)N[C@@H](Cc3ccccc3)C(=O)N2[C@@H]1c1cccc(OCCO)c1
composite z-score: -1.02
--
Molecule: C=CCOC(=O)[C@@H]1[C@H]2C(=O)O[C@H](c3ccccc3)[C@H](c3ccccc3)N2[C@H](c2ccc(OCCOC(=O)[C@H]3C[C@H]4C(=O)N5CCC[C@H]5C(=O)N4[C@H]3c3ccc(O)cc3)cc2)[C@@]12C(=O)Nc1ccc(I)cc12
composite z-score: 0.497
--
Molecule: C=CC1(C(=O)OC)CC=C(C(=O)OC)CC1 (stereo not drawn)
composite z-score: 0.184
--
Molecule: O=C1N[C@@H](Cc2ccccc2)C(=O)N2[C@@H]1C[C@@H](C(=O)O)[C@H]2c1cccc(OCCO)c1
composite z-score: 0.552
--
Molecule: CC(C)C(CO)N1C(=O)[C@@H]2C3C(=O)OCCC/C=C\[C@H]3OC23C=CCN(CCN2CCOCC2)C(=O)[C@@H]13 (stereo partly drawn)
composite z-score: -1.24
--
Molecule: C=C[C@H](OC)[C@@H](OC(=O)Nc1ccc(OC)cc1)c1ccc(O)c(F)c1
composite z-score: -1.28
--
Molecule: [N-]=[N+]=NCc1ccccc1[C@@H]1OC(c2ccc(OCCCO)cc2)=N[C@]1(Cc1ccccc1)C(N)=O
composite z-score: 1.06
--
Molecule: C=C(C)[C@@H]1CC=C(C(O)C2C=CC3C(=O)N(C)C(=O)C3N2Nc2ccccc2)CC1 (stereo partly drawn)
composite z-score: 1.18
--
Molecule: COC(=O)[C@@]1(Cc2ccc(F)cc2)[C@H]2c3cc(C(=O)N(C)C)n(Cc4cc(F)c(F)c(F)c4)c3C[C@H]2CN1C(=O)c1ccccc1
composite z-score: 0.704
--
Molecule: CCCc1cc2c(n1Cc1cc(F)cc(F)c1)C(C)C1CN(C(=O)c3ccccc3)C(C)(C(=O)OC)C21 (stereo not drawn)
composite z-score: 1.01
--
Molecule: CC(C)C(=C=CC[C@@H](O)c1ccc(OCCO)cc1)C[C@@H](O)COCc1ccccc1
composite z-score: 0.225
--
Molecule: COc1cc2c(cc1O)C(c1cccs1)N(C)CC2 (stereo not drawn)
composite z-score: -1.05
--
Molecule: C=CCNC(=O)[C@@H]1[C@H]2C(=O)O[C@H](c3ccccc3)[C@H](c3ccccc3)N2[C@H](c2ccc(OCCO)cc2)[C@@]12C(=O)Nc1ccc(C#CCC(C(=O)OC)C(=O)OC)cc12
composite z-score: 1.25
--
Molecule: COc1cc(COC(C)=O)ccc1OC(C)=O
composite z-score: -0.155
--
Molecule: C=C(CCCC)/C(=C/C[C@@H](OC(=O)c1ccncc1)c1ccc(OCCO)cc1)c1cc(C(=O)OC)ccc1OC
composite z-score: 0.229
--
Molecule: COC(=O)C(CC#Cc1ccc2c(c1)[C@]1(C(=O)N2)[C@H](c2ccc(OCCO)cc2)N2[C@H](c3ccccc3)[C@H](c3ccccc3)OC(=O)[C@H]2[C@@H]1C(=O)Nc1nc2ccccc2s1)C(=O)OC
composite z-score: 0.638
--
Molecule: CO[C@H]1O[C@H](CO)[C@@H](OC(=O)Nc2ccc(C(F)(F)F)cc2)[C@H](OC(=O)Nc2ccc3c(c2)OCO3)[C@@H]1OC(=O)Nc1ccc2c(c1)OCO2
composite z-score: 0.729
--
Molecule: O=C(N1CCCCC1)[C@]1(Cc2ccccc2)N=C(c2ccc(OCCCO)cc2)O[C@@H]1c1ccccc1
composite z-score: 0.99
--
Molecule: C=C[C@H](CO[Si](CC)(CC)CC)N(Cc1ccc(OC(C)=O)c(OC)c1)S(=O)(=O)c1ccc(Br)cc1
composite z-score: 0.713
--
Molecule: NC(=O)NCC#Cc1ccc2c(c1)[C@]1(C(=O)N2)[C@H](c2ccc(O)cc2)N2[C@H](c3ccccc3)[C@H](c3ccccc3)OC(=O)[C@H]2[C@@H]1C(=O)O
composite z-score: -0.142
--
Molecule: CCCC[C@@H]1C[C@H]1[C@@H](NC(=O)C(C)(C)C)c1ccc(C(F)(F)F)cc1
composite z-score: -0.372

* * *

As shown below, each of these compounds has a reported z-score value.
Method: A549 lung cancer cell viability effects, profiling panel, resazurin fluorescence, 24 h, PK04 Diversity Set (AID 1171); further: test concentration not given here
Conditions: higher = more signal, called active from +8 up or from −8 down

Compound: CCC(CC)C(O)C1C=CC2C(=O)NC(=O)C2N1Nc1ccccn1 (stereo not given)
z-score: -0.801

Compound: CCCc1cc2c(n1Cc1cc(F)cc(F)c1)C(C)C1CN(C(=O)c3ccccc3)C(C)(C(=O)OC)C21 (stereo not given)
z-score: -0.675

Compound: CCCC[C@@H]1C[C@H]1[C@@H](NC(=O)c1ccccc1)c1ccc(C(=O)OC)cc1
z-score: 0.571

Compound: C=C(CCCC)C(=O)CC[C@@H](OC(=O)c1ccccc1-c1ccccc1C(=O)O)c1ccc(OCCO)cc1
z-score: 0.128

Compound: CO[C@H]1O[C@H](CO)[C@@H](OC(=O)Nc2ccc(C(F)(F)F)cc2)[C@H](OC(=O)Nc2ccc3c(c2)OCO3)[C@@H]1OC(=O)Nc1ccc2c(c1)OCO2
z-score: -1.99

Compound: COc1ccc(C#Cc2ccc3c(c2)[C@]2(C(=O)N3)[C@H](c3ccccc3OCCO)N3[C@H](c4ccccc4)[C@H](c4ccccc4)OC(=O)[C@H]3[C@@H]2C(=O)Nc2nc3ccccc3s2)cc1
z-score: -2.07

Compound: CCOC(=O)C[C@H]1[C@H](OC(=O)c2ccc(-c3ccccc3)cc2)[C@@H](NC(=O)Cc2ccc(OC)cc2)c2cc(OCCCO)ccc2N1C(=O)c1ccccc1
z-score: -0.657

Compound: O=C1C[C@]2(c3ccc([N+](=O)[O-])cc3)C(=O)N(CC(F)(F)F)c3cc(CO)ccc3[C@H]2N1C1CCCCC1
z-score: -0.745

Compound: Oc1ccc2cc[n+](Cc3sc4ccccc4c3Cl)cc2c1
z-score: -0.655

Compound: C[N+](C)(C)CCCC[C@@H]1NC(=O)[C@H]2C[C@@H](C(=O)NCCCCCCNC(=O)CS)[C@@H](c3cccc(OCCO)c3)N2C1=O
z-score: -0.257

Compound: COc1cc2c(cc1O)C(C1CC1)N(Cc1sc3ccccc3c1Cl)CC2 (stereo not given)
z-score: -0.663

Compound: COc1ccc(C#Cc2ccc3c(c2)[C@]2(C(=O)N3)[C@H](C(=O)Nc3nc4ccccc4s3)[C@H]3C(=O)O[C@H](c4ccccc4)[C@H](c4ccccc4)N3[C@@H]2c2ccc(O)cc2)cc1
z-score: 0.279

Compound: COc1ccc([Si](C)(C)[C@@H]2[C@@H](CCO)O[C@]3(C(=O)N(Cc4ccc(N(C=O)c5ccccc5)cc4)c4ccccc43)[C@H]2C)cc1
z-score: -2.71

Compound: CCCC#C[Si](O[C@H](CC)c1cn(Cc2cccc(Cl)c2)nn1)(C(C)C)C(C)C
z-score: 0.158

Compound: CC(C)C(O)C1C=CC2C(=O)NC(=O)C2N1Nc1ccc(Cl)cc1Cl (stereo not given)
z-score: -0.883
